- test details: protein stability index of a GFP-peptide fusion (GPS, HEK-293T) (PSI 1-6); higher = more stable;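 note: 24-mer peptide tiles fused after GFP, lentivirally expressed, FACS-sorted into six equal bins by GFP/DsRed ratio, decoded by Illumina sequencing, PSI is the read-weighted mean bin number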
- experimental conditions: treatment: DMSO; c terminus: a fixed tail appended
readout: protein stability index
Numbers only.

# input sequence, protein stability index
measured = [
    ("YGYAAQARARERERLAHSRAAAAA [KCNA4]", 3.9),
    ("LRTTVHHAFPVVTENRGNEKEFMK [CLCN6]", 4.05),
]

Go through the list and state protein stability index for each entry.
1. IEVNGENVEDASHEEVVEKVKKSG [PDZK1]
2. IFQMVIICLMCVHSLERAGSKQYS [SMG5]

A.
1. 5.63
2. 3.21

Go through the list and state protein stability index for each entry.
1. ELDEEEVKAATTEPTEVEEVVPAL [BCL2L13]
2. LFLDLLQSYKDLCERHEKGVLHKH [SNX8]
3. EAELELLRQFDLAWQYGPCTGITR [POLD4]
4. RAEQDSEVGPQEINKEELEGNSMR [GMCL1]
5. VSHVGWDPQNGFDVNNLDPDLRSL [WAS]

A.
1. 5.44
2. 2.49
3. 2.85
4. 5.6
5. 3.9

Q. So what's the measured protein stability index for this one? PEENYPSLQMSSAEMPHTETVSPL [NANOGP8]
A. 5.25

----------
- test details: protein stability index of a GFP-peptide fusion (GPS, HEK-293T) (PSI 1-6); higher = more stable
- experimental conditions: treatment: DMSO; c terminus: a fixed tail appended
Hi all, reminder that labels come from protein stability index, split as low = under 3, middle = from 3 up to 4, high = 4 and over

# input sequence, category
measured = [
    ("RRYLEKSIKMGKRNGLHLPEQVQN [NLN]", "middle"),
    ("ARDTVQVELIPEKKGLFLKHVEYE [SNX8]", "middle"),
    ("FANEEEAKKFRKAVTDLLGRRQRK [WASL]", "middle"),
    ("ARYTMPSSLLAPAKHLIASMLSKN [PLK2]", "low"),
    ("LGAQTQFDVKNDRYIVNGSHEANK [EIF5]", "high"),
    ("KSKASFLLLASGLVITDFFGHLIN [PTGFR]", "middle"),
]

Q. Category of QPLEVKNNSNLQRMGSSESTDSGF [CDC25A] , please.
A. high

Q. Category of SAASSAAAGEPLECPTCGHSYNVT [RNF208] , please.
A. high

Q. Category of VPSEEPQESDQTEEHESGIEQFSE [IQUB] , please.
A. high

Q. Category of ARLKRSQSFGVASASSIKQILLEW [SMTNL2] , please.
A. low

Q. Category of DTNSIAKAIKARGEVIHCKLRAMK [STX11] , please.
A. low

Q. Category of LQHEERETRQKKLEVAMEEEGLAD [STK38L] , please.
A. high

Q. Category of ASSLNGGNIKGIEGHSPGNLPKFC [ZC2HC1A] , please.
A. middle

Q. Category of SHECKPEGYEFCHNRKVLTIFSAS [PPEF2] , please.
A. low

Q. Category of ITNVDLREYLSEEVQAVHKNTTYD [USP39] , please.
A. high

Q. Category of SEDRTVRVWLKRDSGQYWPSVYHA [WDFY2] , please.
A. low

Q. Category of IESAHRSRIKVLETSYQQREERLR [FBF1] , please.
A. middle

Q. Category of GMGGIQNEKETMQSLNDRLASYLD [KRT18] , please.
A. middle

Q. Category of GVQREAQRIALRLGNGNDKKEMNK [KMT2E] , please.
A. high

Q. Category of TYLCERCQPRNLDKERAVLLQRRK [KMT2E] , please.
A. low

Q. Category of IQKAYDELRLQSEAFKKHSLDLLS [CCDC89] , please.
A. low

Q. Category of MGQKLSGSLKSVEVREPALRPAKR [SPSB4] , please.
A. high

Q. Category of RIPTCHDKPGTTQIVQLTQQVDTN [DENND6A] , please.
A. high

Q. Category of AVQQVQRLPFLSSSNLSLDVLRGN [POMP] , please.
A. low

Q. Category of HSVFEFLAFKNDIQFWNSRQSLEG [CLPTM1] , please.
A. low

----------
Would you kindly list protein stability index for each of these sequences?
- test details: protein stability index of a GFP-peptide fusion (GPS, HEK-293T) (PSI 1-6); higher = more stable
- experimental conditions: treatment: DMSO; c terminus: a fixed tail appended
One number for each entry.

# input sequence, protein stability index
data = [
    ("DKVLGTFEFDETSFWNSSHPRGWN [KLHDC2]", 2.93),
]

Go through the list and state protein stability index for each entry.
1. SHLVIHNLFEGMIWFIVPISCVIC [CDS2]
2. TFVFLASLLVLIEPVAAGSGIPEV [CLCN6]

A.
1: 3.09; 2: 2.91

----------
- test details: protein stability index of a GFP-peptide fusion (GPS, HEK-293T) (PSI 1-6); higher = more stable
- experimental conditions: treatment: MLN4924 1 uM, 8 h; c terminus: a fixed tail appended
readout: protein stability index
Answers are plain numbers.

For orientation, consider the following solved cases.
# input sequence, readout, observed
measured = [
    ("LVYVAAFSIGLGPMPWLVLSEIFP [SLC2A12]", "protein stability index", 3.19),
    ("SAASSAAAGEPLECPTCGHSYNVT [RNF208]", "protein stability index", 4.77),
    ("NFLACLASFCVETNNGAGFGLSIL [SCAMP3]", "protein stability index", 2.99),
    ("REPVTKAEMLGSVVGNWQYFFPVI [MAGEA3]", "protein stability index", 2.25),
    ("FIVGMVGNATLLRIIYQNKCMRNG [EDNRA]", "protein stability index", 2.51),
]

Go through the list and state protein stability index for each entry.
1. TFVFLASLLVLIEPVAAGSGIPEV [CLCN6]
2. DPGVQELEALIDTIQKQLKDHSCK [EFHC1]
3. NEKQLHTLRTCYAANPRPDALMKE [ISL2]
4. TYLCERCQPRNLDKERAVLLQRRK [KMT2E]
5. QAAKLLGSMEQVSSHFLEQTLDKK [INTS4]
6. LAWASYDQTGKEVADRWYSEIKNY [GLIPR2]
7. NNHESLDEELHLLIISCRKLFYFK [FBXO39]
8. PRHPIRALVGDEVELPCRISPGKN [MOG]

A.
[2.71, 3.97, 4.15, 3.32, 3.88, 3.05, 2.12, 4.72]

Go through the list and state protein stability index for each entry.
1. CEHECVNADGSYLCQCHEGFALNP [MATN2]
2. LSLEAVICFKEMLANSWNCLPKHL [KLHDC2]
3. VAGEGVRRKGEMGLSAEDGVWAVI [TRIM15]
4. LSARDHQKLEREARICRLLKHPNI [CAMK2A]
5. MCLKKNHEEEVSVLRCQLGDRLNV [KRT36]
6. EKKVLEAGMGKVTSASFGEESTPG [HDAC6]

A.
1. 4.8
2. 2.37
3. 2.55
4. 3.01
5. 3.02
6. 5.18

Go through the list and state protein stability index for each entry.
1. CEEEVFPLAMNYLDRFLSLEPVKK [CCND1]
2. EILSSRASYSGKAADVWSLGVALF [TRIB3]
3. LNEDTIQDVVQAADLLLLTDLKTL [GAN]
4. LMQVHASRSNNMGIVGGFTQMIRE [SLC25A25]

A.
[3.3, 2.42, 3.16, 2.94]

Go through the list and state protein stability index for each entry.
1. MYGVDLHHAKDSEGVEIMLGVCAS [EPB41L3]
2. KLSPKKTWEGFIGGFFATVVFGLL [CDS2]
3. FANEEEAKKFRKAVTDLLGRRQRK [WASL]

A.
1. 2.77
2. 2.01
3. 3.52

----------
- test details: protein stability index of a GFP-peptide fusion (GPS, HEK-293T) (PSI 1-6); higher = more stable
- experimental conditions: treatment: MLN4924 1 uM, 8 h; c terminus: native
Param threshold (3) applies to protein stability index; output fulfilled when value >= threshold, not fulfilled when value < threshold.

Some solved cases for reference:
# input sequence, category
measured = [
    ("MLEMVPEKRASAGECLRHPWLNS [SRPK2]", "fulfilled"),
    ("MFLAMLAVVSCASIGSGEPPTGN [CDK11A]", "not fulfilled"),
    ("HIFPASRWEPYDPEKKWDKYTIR [FAM50A]", "fulfilled"),
]

Moving on to the next sequence.
Q. Dear colleague, could you confirm whether WQVLKTHPGDPRFQCSLWHLYPL [POLD4] has protein stability index at or above 3?
A. not fulfilled
